Tested Target: hPPARγ (Homo sapiens)
Construct: Full length PPARs plasmid DNA; expressed in transfected cells; host or cells: CV-1 cells
Sequence (P37231 whole entry): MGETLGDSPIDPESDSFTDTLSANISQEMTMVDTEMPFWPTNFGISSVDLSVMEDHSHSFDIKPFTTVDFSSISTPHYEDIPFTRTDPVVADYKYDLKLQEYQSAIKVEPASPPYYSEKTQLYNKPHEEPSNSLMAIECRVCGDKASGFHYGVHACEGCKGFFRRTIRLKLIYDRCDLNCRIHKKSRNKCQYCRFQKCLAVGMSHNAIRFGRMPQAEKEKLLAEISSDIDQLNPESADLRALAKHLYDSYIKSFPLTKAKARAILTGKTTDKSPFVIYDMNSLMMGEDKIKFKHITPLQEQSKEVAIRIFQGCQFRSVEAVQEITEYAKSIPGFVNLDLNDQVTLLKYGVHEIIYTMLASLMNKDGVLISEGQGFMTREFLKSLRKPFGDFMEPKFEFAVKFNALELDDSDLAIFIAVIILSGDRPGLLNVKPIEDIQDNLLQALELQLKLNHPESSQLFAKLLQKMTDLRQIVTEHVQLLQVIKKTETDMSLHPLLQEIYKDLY
Protocol Notes: Transfection assay (luciferase reporter), PPARγ
Format: cell-based
Test Context: CV-1 cells, full length PPAR plasmid, 24 hours
Measured Quantity: EC50 hPPARγ

-- ask Lab note: need EC50 hPPARγ for Cc1cc([Se]Cc2ccc(-c3ccc(C(F)(F)F)cc3)cc2)ccc1OCC(=O)O on hPPARγ (Homo sapiens), anyone have it?
-- reply ia

-- ask Now the same for CCC(Oc1ccc(SC(Cc2ccccc2)c2ccc(-c3ccc(C(F)(F)F)cc3)cc2)cc1C)C(=O)O (centres unmarked)
-- reply ia

-- ask Now the same for Cc1cc(SC(Cc2ccccc2)c2ccc(-c3ccc(C(F)(F)F)cc3)cc2)ccc1OCC(=O)O (centres unmarked)
-- reply ia

-- ask Now the same for Cc1cc(SC(Cc2c(F)cccc2C(F)(F)F)c2ccc(-c3ccccc3)cc2)ccc1OCC(=O)O (centres unmarked)
-- reply ia

-- ask Now the same for Cc1cc(SC(Cc2ccccc2)c2ccc(-c3cc(F)c(F)c(F)c3)cc2)ccc1OCC(=O)O (centres unmarked)
-- reply ia

-- ask Now the same for Cc1cc(SC(Cc2ccccc2)c2ccc(-c3ccc(C(F)(F)F)cc3)cc2)ccc1OC(C)(C)C(=O)O (centres unmarked)
-- reply ia

-- ask Now the same for Cc1cc(SC(Cc2ccccc2)c2ccc(-c3ccc(C(F)(F)F)cc3)nc2)ccc1OCC(=O)O (centres unmarked)
-- reply ia

We next turn to a different compound, shown below.
-- ask Lab note: need EC50 hPPARγ for Cc1cc([Se]C(Cc2ccccc2)c2ccc(-c3ccc(C(F)(F)F)cc3)cc2)ccc1OCC(=O)O (centres unmarked) on hPPARγ (Homo sapiens), anyone have it?
-- reply ia

###

Recorded measurements of pEC50, one per entry
Tested Target: hPPARδ (Homo sapiens)
Construct: Full length PPARs plasmid DNA; expressed in transfected cells; host or cells: CV-1 cells
Sequence (Q03181 1-441): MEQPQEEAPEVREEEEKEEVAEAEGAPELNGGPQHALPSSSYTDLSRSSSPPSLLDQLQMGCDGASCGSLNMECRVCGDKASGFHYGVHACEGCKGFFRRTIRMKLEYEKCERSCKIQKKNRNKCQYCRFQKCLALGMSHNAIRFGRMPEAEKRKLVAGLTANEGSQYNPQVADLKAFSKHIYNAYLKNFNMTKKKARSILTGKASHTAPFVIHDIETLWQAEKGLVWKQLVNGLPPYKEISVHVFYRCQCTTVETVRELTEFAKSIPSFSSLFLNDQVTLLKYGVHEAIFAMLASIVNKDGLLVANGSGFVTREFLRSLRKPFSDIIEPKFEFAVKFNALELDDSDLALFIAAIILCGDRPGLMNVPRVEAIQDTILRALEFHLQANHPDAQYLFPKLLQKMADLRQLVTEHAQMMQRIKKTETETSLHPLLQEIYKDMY
Protocol Notes: Transfection assay (luciferase reporter), PPARδ
Type: cell-based
Test Context: CV-1 cells, full length PPAR plasmid, 24 hours
A value of pEC50 is the negative decimal logarithm of a concentration given in moles per litre.

-- ask Look up pEC50 for this compound: Cc1cc(SC(Cc2ccccc2)c2ccc(-c3ccc(C(F)(F)F)cc3)nc2)ccc1OCC(=O)O (stereo not shown) [Compound 106]
-- reply 8.49

Further cases:
-- ask Look up pEC50 for this compound: Cc1cc(SC(Cc2c(F)cccc2C(F)(F)F)c2ccc(-c3ccccc3)cc2)ccc1OCC(=O)O (stereo not shown) [Compound 66]
-- reply 7.48

-- ask Now the same for Cc1cc(SC(Cc2ccccc2)c2ccc(-c3ccc(C(F)(F)F)cc3)cc2)ccc1OC(C)(C)C(=O)O (stereo not shown) [Compound 22]
-- reply 8.03

-- ask Now the same for Cc1cc(SC(Cc2ccccc2)c2ccc(-c3ccc(C(F)(F)F)cc3)cc2)ccc1OCC(=O)O (stereo not shown) [Compound S14]
-- reply 8.59

###

Tested Target: hPPARδ (Homo sapiens, UniProt Q03181)
Construct: Full length PPARs plasmid DNA; expressed in transfected cells; host or cells: CV-1 cells
Sequence (Q03181 1-441): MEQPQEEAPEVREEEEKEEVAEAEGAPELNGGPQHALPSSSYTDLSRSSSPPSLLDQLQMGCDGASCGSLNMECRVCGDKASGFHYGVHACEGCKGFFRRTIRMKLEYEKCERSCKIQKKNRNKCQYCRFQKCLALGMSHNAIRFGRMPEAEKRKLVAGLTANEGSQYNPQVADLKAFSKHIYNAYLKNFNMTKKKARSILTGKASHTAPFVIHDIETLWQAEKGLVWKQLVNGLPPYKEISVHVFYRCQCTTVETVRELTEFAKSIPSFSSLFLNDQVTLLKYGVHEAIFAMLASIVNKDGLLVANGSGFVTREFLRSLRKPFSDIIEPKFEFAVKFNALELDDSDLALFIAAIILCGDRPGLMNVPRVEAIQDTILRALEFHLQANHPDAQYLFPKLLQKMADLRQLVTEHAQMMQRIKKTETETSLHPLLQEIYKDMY
Protocol Notes: Transfection assay (luciferase reporter), PPARδ
Format: cell-based
Test Context: CV-1 cells, full length PPAR plasmid, 24 hours
Measured Quantity: pEC50
A value of pEC50 is the negative decimal logarithm of a concentration given in moles per litre.

Sample records with pEC50:
-- ask Look up pEC50 for this compound: Cc1cc(SC(Cc2ccccc2)c2ccc(-c3cc(F)c(F)c(F)c3)cc2)ccc1OCC(=O)O (stereo not shown) [Compound 46]
-- reply 8.43

-- ask Now the same for Cc1cc([Se]Cc2ccc(-c3ccc(C(F)(F)F)cc3)cc2)ccc1OCC(=O)O [Compound S306]
-- reply 7.28

-- ask Now the same for Cc1cc([Se]C(Cc2ccccc2)c2ccc(-c3ccc(C(F)(F)F)cc3)cc2)ccc1OCC(=O)O (stereo not shown) [Compound S164]
-- reply 8.35

We next turn to a different compound, shown below.
-- ask Look up pEC50 for this compound: CCC(Oc1ccc(SC(Cc2ccccc2)c2ccc(-c3ccc(C(F)(F)F)cc3)cc2)cc1C)C(=O)O (stereo not shown) [Compound 23]
-- reply 7.92
